- System Tested: T1, EsCas13d, nuclease-dead (Eubacterium siraeum, UniProt B0MS50, R295A;H300A;R849A;H854A)
- T1 sequence: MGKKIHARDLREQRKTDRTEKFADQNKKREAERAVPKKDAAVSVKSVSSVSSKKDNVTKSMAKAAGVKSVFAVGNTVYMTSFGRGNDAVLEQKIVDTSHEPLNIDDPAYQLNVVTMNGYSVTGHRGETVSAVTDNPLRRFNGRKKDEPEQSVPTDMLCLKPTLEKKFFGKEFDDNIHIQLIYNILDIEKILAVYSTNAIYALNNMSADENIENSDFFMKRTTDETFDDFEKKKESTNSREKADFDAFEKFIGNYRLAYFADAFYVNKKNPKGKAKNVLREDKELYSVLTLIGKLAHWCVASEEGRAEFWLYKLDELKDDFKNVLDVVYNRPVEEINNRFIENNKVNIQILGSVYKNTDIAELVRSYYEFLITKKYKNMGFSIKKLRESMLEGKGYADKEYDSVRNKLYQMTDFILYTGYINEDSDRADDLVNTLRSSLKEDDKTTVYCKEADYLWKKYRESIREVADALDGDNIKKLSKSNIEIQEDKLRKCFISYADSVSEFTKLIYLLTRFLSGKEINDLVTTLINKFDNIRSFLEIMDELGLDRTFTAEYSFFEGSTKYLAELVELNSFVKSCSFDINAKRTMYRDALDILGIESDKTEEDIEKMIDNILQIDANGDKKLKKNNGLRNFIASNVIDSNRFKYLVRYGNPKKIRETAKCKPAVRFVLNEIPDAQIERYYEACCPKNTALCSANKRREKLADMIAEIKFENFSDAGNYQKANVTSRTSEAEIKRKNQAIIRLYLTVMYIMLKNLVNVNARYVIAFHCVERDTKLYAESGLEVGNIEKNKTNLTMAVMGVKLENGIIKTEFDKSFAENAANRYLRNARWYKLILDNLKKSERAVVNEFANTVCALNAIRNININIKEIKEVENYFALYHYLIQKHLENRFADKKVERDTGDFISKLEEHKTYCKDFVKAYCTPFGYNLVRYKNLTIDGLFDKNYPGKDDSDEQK
- Experiment: crRNA (strand 1, pre-loaded); Mg2+; 40 mM Tris-HCl pH 7.5, 150 mM NaCl, 6 mM MgCl2, 1 mM DTT, 0.1% Tween-20, 0.2 mg/ml BSA; 25 C; 10 min per concentration, then washed
- Experimental Context: tags: His6-TwinStrep-SUMO cleaved; N-terminal SNAP kept (SNAP-Surface 488); label: 3' end held by stalled T7 RNA polymerase
Each record is given True if its reported Kd is strictly below 20 nM. Records at or above 20 nM are given False.

target 2 MT 5'PFS GAG 3'PFS UGA (mixed) RNA 1: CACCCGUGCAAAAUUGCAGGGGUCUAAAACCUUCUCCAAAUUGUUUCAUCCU RNA 2: GGGAAUGGAUCCACAUCUACGAAUUCGAGAGGAUGAAACAAUUUGGAGAAGUGAAGAUCGGAAGAGCACACGU = True
target 1 C2G,G5C (mixed) RNA 1: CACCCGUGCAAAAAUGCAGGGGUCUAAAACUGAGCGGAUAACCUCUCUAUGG RNA 2: GGGAAUGGAUCCACAUCUACGAAUUCGUACCAUAGAGAGGUUAUCCCCUGACCGAGAUCGGAAGAGCACACGU = True
target 3 C16U,U22C (mixed) RNA 1: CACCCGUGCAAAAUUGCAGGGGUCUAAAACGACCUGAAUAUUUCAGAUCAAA RNA 2: GGGAAUGGAUCCACAUCUACGAAUUCGUUCUUGAUUUGAAAUAUUCAGGUCUGCAGAUCGGAAGAGCACACGU = False
target 2 MT 5'PFS CGU 3'PFS ACG (mixed) RNA 1: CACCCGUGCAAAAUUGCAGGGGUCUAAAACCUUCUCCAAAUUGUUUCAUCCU RNA 2: GGGAAUGGAUCCACAUCUACGAAUUCCGUAGGAUGAAACAAUUUGGAGAAGACGAGAUCGGAAGAGCACACGU = False
target 2 MT 5'PFS UAU 3'PFS AAU (mixed) RNA 1: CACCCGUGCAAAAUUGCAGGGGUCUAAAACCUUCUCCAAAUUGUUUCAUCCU RNA 2: GGGAAUGGAUCCACAUCUACGAAUUCUAUAGGAUGAAACAAUUUGGAGAAGAAUAGAUCGGAAGAGCACACGU = True

Please indicate whether the reported Kd of target 1 insU 3' of 14,insG 3' of 6 (mixed) RNA 1: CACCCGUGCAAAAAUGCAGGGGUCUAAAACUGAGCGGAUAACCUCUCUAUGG RNA 2: GGGAAUGGAUCCACAUCUACGAAUUCGUACCAUAGAGAUGGUUAUCCGGCUCACCGAGAUCGGAAGAGCACACGU is strictly below 20 nM.
False
